Target: T1, histidine-tagged human Siglec-7 (NovoProtein) (human, UniProt Q9Y286 19-353)
T1 construct: Bought protein; also called recombinant human Siglec-7; recombinant Siglec-7; not shown: histidine tag
T1 sequence (Q9Y286 19-353 limits assumed): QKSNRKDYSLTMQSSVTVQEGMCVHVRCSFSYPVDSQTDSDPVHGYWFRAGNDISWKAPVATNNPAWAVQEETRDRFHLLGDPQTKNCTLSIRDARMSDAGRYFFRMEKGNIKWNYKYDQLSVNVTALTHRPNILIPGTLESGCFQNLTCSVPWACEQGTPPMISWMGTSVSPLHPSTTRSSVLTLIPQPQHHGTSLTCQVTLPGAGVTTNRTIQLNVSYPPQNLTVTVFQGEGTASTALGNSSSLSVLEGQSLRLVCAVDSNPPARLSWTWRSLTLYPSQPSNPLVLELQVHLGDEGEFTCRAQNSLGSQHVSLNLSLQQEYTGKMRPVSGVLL
Assay: BLI (ForteBio), antibody captured
kon values for the binders below.
Report the figure in M⁻¹ s⁻¹ without appending any unit label.

The examples below pair each entry with its known result.
S7AB-H11 (antibody, V domains shown) VH: QVQLVQSGAEVKKPGASVKISCKASGYAFTNCWMNWVRQAPGQGLEWIGRIFPGNGHTNYAQKFQGRATLTEDTSTSTAYMELSSLRSEDTAVYYCARDYSDYYFDYWGQGTLLTVSS VL: DIQMTQSPSSLSASVGDRVTITCRASQDINTYLNWYQQKPGKAPKLLIYYTSRLHSGVPSRFSGSGSGTDYTLTISSLQPEDFATYYCQQGNTLPWTFGQGTKLEIK    160000
S7AB-H9 (antibody, V domains shown) VH: QVQLVQSGAEVKKPGASVKISCKASGYAFTNCWMNWVRQAPGQGLEWIGRIFPGNGHTNYAQKFQGRATLTEDTSTSTAYMELSSLRSEDTAVYYCARDYSDYYFDYWGQGTLVTVSS VL: DVQMTQSPSSLSASVGDRVTITCRASQDINTYLNWYQQKPGKAPKLLIYYTSRLHSGVPSRFSGSGSGTDYTLTISSLQPEDFATYYCQQGNTLPWTFGQGTKLEIK    150000

So, S7AB-H8 (antibody, V domains shown, also called parental humanized antibody) VH: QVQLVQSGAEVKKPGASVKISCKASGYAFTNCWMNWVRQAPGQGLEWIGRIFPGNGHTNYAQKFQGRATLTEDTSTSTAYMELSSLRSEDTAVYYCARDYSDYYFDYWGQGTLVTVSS VL: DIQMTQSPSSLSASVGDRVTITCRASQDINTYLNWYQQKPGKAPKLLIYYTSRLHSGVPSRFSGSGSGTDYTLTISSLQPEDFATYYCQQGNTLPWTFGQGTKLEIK ? Its kon was 145000

So, S7AB (antibody, V domains shown, Parental mouse antibody; also called S7-10B5.1; mouse anti-human Siglec-7 antibody) VH: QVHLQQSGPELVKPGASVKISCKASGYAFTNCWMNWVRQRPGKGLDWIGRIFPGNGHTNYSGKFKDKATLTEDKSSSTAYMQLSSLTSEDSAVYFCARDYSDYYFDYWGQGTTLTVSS VL: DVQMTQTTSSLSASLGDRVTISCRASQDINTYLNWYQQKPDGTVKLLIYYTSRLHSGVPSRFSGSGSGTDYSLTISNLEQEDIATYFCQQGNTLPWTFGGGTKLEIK ? Its kon was 195000

So, S7AB-H12 (antibody, V domains shown) VH: QVQLVQSGAEVKKPGASVKISCKASGYAFTNCWMNWVRQAPGQGLEWIGRIFPGNGHTNYAQKFQGRATLTEDTSTSTAYMELSSLRSEDTAVYYCARDYSDYYFDYWGQGTLLTVSS VL: DVQMTQSPSSLSASVGDRVTITCRASQDINTYLNWYQQKPGKAPKLLIYYTSRLHSGVPSRFSGSGSGTDYTLTISSLQPEDFATYYCQQGNTLPWTFGQGTKLEIK ? Its kon was 150000
